Assay notes: Human in vivo oral dosage escalation studies: nausea and emesis side-effects
Assay conditions: human, in vivo, immediate-release formulations, human; read-out: threshold for nausea (Cmax)
Test readout: Cmax

## Input Suppose we examine the molecule C[C@@H](Oc1ccc(CNC(=O)c2cccnc2Oc2ccc3c(c2)OCO3)c(F)c1)C(=O)O [Compound (I)] ; what Cmax value has been reported?
## Output ~60 ng/mL

---

Assay notes: Human in vivo oral dosage escalation studies: nausea and emesis side-effects
Assay conditions: human, in vivo, immediate-release formulations, human; read-out: threshold for emesis (Cmax)
Test readout: Cmax

## Input I would be grateful if you could share the reported Cmax for C[C@@H](Oc1ccc(CNC(=O)c2cccnc2Oc2ccc3c(c2)OCO3)c(F)c1)C(=O)O [Compound (I)] .
## Output ~200 ng/mL
